Where do these numbers come from? They come from patent USRE38090E1.

Where a name gives a salt, the structure may show the parent alone.
endpoint-label: melting point

// solved cases for melting point follow
CCC#C[C@@]1(O)[C@@H](CO)O[C@@H](n2ccc(=O)[nH]c2=O)[C@@H]1O :: 139 to 142 °C
CCC#C[C@@]1(O)[C@@H](CO)O[C@@H](n2ccc(N)nc2=O)[C@@H]1O (as salt: salt) :: 181 to 184 °C

Next:
Any idea what melting point was measured for C=C[C@@]1(O)[C@@H](CO)O[C@@H](n2ccc(=O)[nH]c2=O)[C@@H]1O ? 219 to 222 °C
